# experiment: FRG1 promoter luciferase signal modulators, primary screen, FRG1 inhibition for FSHD, cell-based, C2C12 myotubes, firefly/Renilla luciferase, luminescence (AID 1084)
# study_conditions: higher = more signal, called active from +8 up or from −8 down
measured_property: z-score
Format: numeric value only, no unit, no commentary.

See these solved cases before continuing.
{"compound": "CC(C)C[C@@H]1NC(=O)[C@@H]2C[C@H](C(=O)NCc3ccc(F)cc3)[C@H](c3cccc(OCCO)c3)N2C1=O", "measured_property": "z-score", "readout_number": -0.148}
{"compound": "CCCC[C@@H]1C[C@H]1[C@@H](NC(=O)c1ccccc1)c1ccc(C(=O)OC)cc1", "measured_property": "z-score", "readout_number": 0.191}
{"compound": "COC(=O)[C@@]1(CCC(=O)OC(C)(C)C)N=C(c2ccc(OCCCO)cc2)O[C@H]1c1ccccc1N=[N+]=[N-]", "measured_property": "z-score", "readout_number": 3.09}

Consider now this further compound.
Inquiry: Query (compound): O=C1OCCC/C=C\[C@H]2OC34C=CCN(Cc5ccccc5)C(=O)[C@H]3N(CCCO)C(=O)[C@@H]4C12 (some centres undefined) ; field requested: z-score
Reply text: 0.308

Data provenance is PubChem BioAssay.
